Origin of the recorded values: BigSolDB 2.1

PARTICULARS: in methyl acetate, 323.15 K
ENDPOINT LABEL: solubility (mole fraction)
Field format: numeric only.

Query block: Determine its reported solubility (mole fraction): c1ccc2[nH]c(-c3cscn3)nc2c1
Result block: 0.00117

====

PARTICULARS: in n-butanol, 283.15 K
ENDPOINT LABEL: solubility (mole fraction)
Field format: numeric only.

Query block: Determine its reported solubility (mole fraction): c1ccc2[nH]c(-c3cscn3)nc2c1
Result block: 0.0016

====

PARTICULARS: in n-propanol, 323.15 K
ENDPOINT LABEL: solubility (mole fraction)
Field format: numeric only.

Query block: Determine its reported solubility (mole fraction): c1ccc2[nH]c(-c3cscn3)nc2c1
Result block: 0.00347

====

PARTICULARS: in methyl acetate, 318.15 K
ENDPOINT LABEL: solubility (mole fraction)
Field format: numeric only.

Query block: Determine its reported solubility (mole fraction): c1ccc2[nH]c(-c3cscn3)nc2c1
Result block: 0.000953

====

PARTICULARS: in 2-butanone, 298.15 K
ENDPOINT LABEL: solubility (mole fraction)
Field format: numeric only.

Query block: Determine its reported solubility (mole fraction): c1ccc2[nH]c(-c3cscn3)nc2c1
Result block: 0.00161

====

PARTICULARS: in ethyl acetate, 308.15 K
ENDPOINT LABEL: solubility (mole fraction)
Field format: numeric only.

Query block: Determine its reported solubility (mole fraction): c1ccc2[nH]c(-c3cscn3)nc2c1
Result block: 0.000956

====

PARTICULARS: in ethyl acetate, 323.15 K
ENDPOINT LABEL: solubility (mole fraction)
Field format: numeric only.

Query block: Determine its reported solubility (mole fraction): c1ccc2[nH]c(-c3cscn3)nc2c1
Result block: 0.00127

====

PARTICULARS: in isobutanol, 323.15 K
ENDPOINT LABEL: solubility (mole fraction)
Field format: numeric only.

Query block: Determine its reported solubility (mole fraction): c1ccc2[nH]c(-c3cscn3)nc2c1
Result block: 0.00294

====

PARTICULARS: in acetone, 313.15 K
ENDPOINT LABEL: solubility (mole fraction)

Query block: Determine its reported solubility (mole fraction): c1ccc2[nH]c(-c3cscn3)nc2c1
Result block: 0.00139

====

PARTICULARS: in acetonitrile, 303.15 K
ENDPOINT LABEL: solubility (mole fraction)

Query block: Determine its reported solubility (mole fraction): c1ccc2[nH]c(-c3cscn3)nc2c1
Result block: 0.000209

====

PARTICULARS: in ethanol, 323.15 K
ENDPOINT LABEL: solubility (mole fraction)
Field format: numeric only.

Query block: Determine its reported solubility (mole fraction): c1ccc2[nH]c(-c3cscn3)nc2c1
Result block: 0.00295

====

PARTICULARS: in isobutanol, 313.15 K
ENDPOINT LABEL: solubility (mole fraction)

Query block: Determine its reported solubility (mole fraction): c1ccc2[nH]c(-c3cscn3)nc2c1
Result block: 0.0023

====

PARTICULARS: in acetonitrile, 318.15 K
ENDPOINT LABEL: solubility (mole fraction)
Field format: numeric only.

Query block: Determine its reported solubility (mole fraction): c1ccc2[nH]c(-c3cscn3)nc2c1
Result block: 0.000339

====

PARTICULARS: in n-butanol, 298.15 K
ENDPOINT LABEL: solubility (mole fraction)
Field format: numeric only.

Query block: Determine its reported solubility (mole fraction): c1ccc2[nH]c(-c3cscn3)nc2c1
Result block: 0.0022

====

PARTICULARS: in 2-butanone, 318.15 K
ENDPOINT LABEL: solubility (mole fraction)

Query block: Determine its reported solubility (mole fraction): c1ccc2[nH]c(-c3cscn3)nc2c1
Result block: 0.00241

====

PARTICULARS: in acetonitrile, 298.15 K
ENDPOINT LABEL: solubility (mole fraction)
Field format: numeric only.

Query block: Determine its reported solubility (mole fraction): c1ccc2[nH]c(-c3cscn3)nc2c1
Result block: 0.000149

====

PARTICULARS: in methanol, 313.15 K
ENDPOINT LABEL: solubility (mole fraction)
Field format: numeric only.

Query block: Determine its reported solubility (mole fraction): c1ccc2[nH]c(-c3cscn3)nc2c1
Result block: 0.00244

====

PARTICULARS: in acetonitrile, 288.15 K
ENDPOINT LABEL: solubility (mole fraction)
Field format: numeric only.

Query block: Determine its reported solubility (mole fraction): c1ccc2[nH]c(-c3cscn3)nc2c1
Result block: 0.00012

====

PARTICULARS: in acetone, 293.15 K
ENDPOINT LABEL: solubility (mole fraction)
Field format: numeric only.

Query block: Determine its reported solubility (mole fraction): c1ccc2[nH]c(-c3cscn3)nc2c1
Result block: 0.000796

====

PARTICULARS: in ethyl acetate, 283.15 K
ENDPOINT LABEL: solubility (mole fraction)
Field format: numeric only.

Query block: Determine its reported solubility (mole fraction): c1ccc2[nH]c(-c3cscn3)nc2c1
Result block: 0.000435

====

PARTICULARS: in methyl acetate, 308.15 K
ENDPOINT LABEL: solubility (mole fraction)
Field format: numeric only.

Query block: Determine its reported solubility (mole fraction): c1ccc2[nH]c(-c3cscn3)nc2c1
Result block: 0.000822

====

PARTICULARS: in n-butanol, 323.15 K
ENDPOINT LABEL: solubility (mole fraction)
Field format: numeric only.

Query block: Determine its reported solubility (mole fraction): c1ccc2[nH]c(-c3cscn3)nc2c1
Result block: 0.00416

====

PARTICULARS: in methanol, 293.15 K
ENDPOINT LABEL: solubility (mole fraction)
Field format: numeric only.

Query block: Determine its reported solubility (mole fraction): c1ccc2[nH]c(-c3cscn3)nc2c1
Result block: 0.00158

====

PARTICULARS: in n-butyl acetate, 318.15 K
ENDPOINT LABEL: solubility (mole fraction)
Field format: numeric only.

Query block: Determine its reported solubility (mole fraction): c1ccc2[nH]c(-c3cscn3)nc2c1
Result block: 0.00122

====

PARTICULARS: in n-butyl acetate, 293.15 K
ENDPOINT LABEL: solubility (mole fraction)
Field format: numeric only.

Query block: Determine its reported solubility (mole fraction): c1ccc2[nH]c(-c3cscn3)nc2c1
Result block: 0.000646

====

PARTICULARS: in acetonitrile, 283.15 K
ENDPOINT LABEL: solubility (mole fraction)
Field format: numeric only.

Query block: Determine its reported solubility (mole fraction): c1ccc2[nH]c(-c3cscn3)nc2c1
Result block: 0.000112

====

PARTICULARS: in ethyl acetate, 318.15 K
ENDPOINT LABEL: solubility (mole fraction)
Field format: numeric only.

Query block: Determine its reported solubility (mole fraction): c1ccc2[nH]c(-c3cscn3)nc2c1
Result block: 0.00116

====

PARTICULARS: in isopropanol, 293.15 K
ENDPOINT LABEL: solubility (mole fraction)
Field format: numeric only.

Query block: Determine its reported solubility (mole fraction): c1ccc2[nH]c(-c3cscn3)nc2c1
Result block: 0.00089

====

PARTICULARS: in n-butanol, 313.15 K
ENDPOINT LABEL: solubility (mole fraction)
Field format: numeric only.

Query block: Determine its reported solubility (mole fraction): c1ccc2[nH]c(-c3cscn3)nc2c1
Result block: 0.00337

====

PARTICULARS: in ethyl acetate, 288.15 K
ENDPOINT LABEL: solubility (mole fraction)
Field format: numeric only.

Query block: Determine its reported solubility (mole fraction): c1ccc2[nH]c(-c3cscn3)nc2c1
Result block: 0.000523

====

PARTICULARS: in acetonitrile, 293.15 K
ENDPOINT LABEL: solubility (mole fraction)
Field format: numeric only.

Query block: Determine its reported solubility (mole fraction): c1ccc2[nH]c(-c3cscn3)nc2c1
Result block: 0.000145

====

PARTICULARS: in 2-butanone, 293.15 K
ENDPOINT LABEL: solubility (mole fraction)

Query block: Determine its reported solubility (mole fraction): c1ccc2[nH]c(-c3cscn3)nc2c1
Result block: 0.00151

====

PARTICULARS: in methyl acetate, 313.15 K
ENDPOINT LABEL: solubility (mole fraction)

Query block: Determine its reported solubility (mole fraction): c1ccc2[nH]c(-c3cscn3)nc2c1
Result block: 0.000899

====

PARTICULARS: in n-butanol, 318.15 K
ENDPOINT LABEL: solubility (mole fraction)
Field format: numeric only.

Query block: Determine its reported solubility (mole fraction): c1ccc2[nH]c(-c3cscn3)nc2c1
Result block: 0.00371

====

PARTICULARS: in methyl acetate, 288.15 K
ENDPOINT LABEL: solubility (mole fraction)

Query block: Determine its reported solubility (mole fraction): c1ccc2[nH]c(-c3cscn3)nc2c1
Result block: 0.000515

====

PARTICULARS: in n-butyl acetate, 303.15 K
ENDPOINT LABEL: solubility (mole fraction)

Query block: Determine its reported solubility (mole fraction): c1ccc2[nH]c(-c3cscn3)nc2c1
Result block: 0.000881
